- Procedure Text: qHTS assay to test for compound auto fluorescence at 535 nm (green) in HepG2 cell free culture (AID 720686); note: % is set by controls: 0 for no effect and ±100 for the full control effect
- Assay Context: Cell-free medium, green autofluorescence 485/535 nm; series mostly up to 91.3 µM
Active and inactive are the calls of the source. Calls come from the whole dose curve; as a rule, active = well fitted curve in the direction sought with a large enough effect in the repeat runs; inconclusive = weak or mixed curves; inactive = flat fitted curve, though single readings scatter.
Endpoint Label: fluorescence, % of fluorescein control

INSERT INTO measurements (molecule, result) VALUES
  ('Nc1nc(-c2ccccc2)c(Br)c(=O)[nH]1', 'inactive'),
  ('C/C=C(\C)C(C)=O', 'inactive'),
  ('COc1c2occc2c(OC)c2c(=O)cc(C)oc12', '0.0616% [at 18.6 µM] (inactive)'),
  ('C=CCN1C[C@H](C(=O)N(CCCN(C)C)C(=O)NCC)C[C@@H]2c3cccc4[nH]cc(c34)C[C@H]21', 'inactive'),
  ('CCC(C)C(C)=O (stereo not given)', 'inactive'),
  ('NCC1(Cc2noc(=O)[nH]2)CCCCC1', 'inactive'),
  ('CNCCS(=O)(=O)O', 'inactive'),
  ('CCCCCCCCCCCCCBr', 'inactive'),
  ('CCCCCCCCCCCCCCCCCCOCCO', '-0.0027% [at 18.6 µM] (inactive)'),
  ('O=C(O)[C@H](O)c1ccccc1', 'inactive'),
  ('CCCCCCCCCCCCCCC(=O)NC(CO)CCCCCCCCCCCCCC (stereo not given)', 'inactive'),
  ('CSc1cnccn1', 'inactive'),
  ('C[C@H]1[C@@H](c2ccccc2)NC(=O)N1C', 'inactive'),
  ('CCOc1cccc(N)c1', 'inactive'),
  ('Nc1nnnn1-c1ccccc1', 'inactive');
